target: bovine cardiac myofibrils (full-length cardiac myosin ATPase in the native sarcomere) (Bos taurus (Bovine), UniProt Q9BE39); test: Skinned bovine cardiac myofibril ATPase assay (PK/LDH-coupled); conditions: Ca2+ activating to 75% of maximal rate, read-out: CDMF75 IC50
Sequence (Q9BE39 whole entry): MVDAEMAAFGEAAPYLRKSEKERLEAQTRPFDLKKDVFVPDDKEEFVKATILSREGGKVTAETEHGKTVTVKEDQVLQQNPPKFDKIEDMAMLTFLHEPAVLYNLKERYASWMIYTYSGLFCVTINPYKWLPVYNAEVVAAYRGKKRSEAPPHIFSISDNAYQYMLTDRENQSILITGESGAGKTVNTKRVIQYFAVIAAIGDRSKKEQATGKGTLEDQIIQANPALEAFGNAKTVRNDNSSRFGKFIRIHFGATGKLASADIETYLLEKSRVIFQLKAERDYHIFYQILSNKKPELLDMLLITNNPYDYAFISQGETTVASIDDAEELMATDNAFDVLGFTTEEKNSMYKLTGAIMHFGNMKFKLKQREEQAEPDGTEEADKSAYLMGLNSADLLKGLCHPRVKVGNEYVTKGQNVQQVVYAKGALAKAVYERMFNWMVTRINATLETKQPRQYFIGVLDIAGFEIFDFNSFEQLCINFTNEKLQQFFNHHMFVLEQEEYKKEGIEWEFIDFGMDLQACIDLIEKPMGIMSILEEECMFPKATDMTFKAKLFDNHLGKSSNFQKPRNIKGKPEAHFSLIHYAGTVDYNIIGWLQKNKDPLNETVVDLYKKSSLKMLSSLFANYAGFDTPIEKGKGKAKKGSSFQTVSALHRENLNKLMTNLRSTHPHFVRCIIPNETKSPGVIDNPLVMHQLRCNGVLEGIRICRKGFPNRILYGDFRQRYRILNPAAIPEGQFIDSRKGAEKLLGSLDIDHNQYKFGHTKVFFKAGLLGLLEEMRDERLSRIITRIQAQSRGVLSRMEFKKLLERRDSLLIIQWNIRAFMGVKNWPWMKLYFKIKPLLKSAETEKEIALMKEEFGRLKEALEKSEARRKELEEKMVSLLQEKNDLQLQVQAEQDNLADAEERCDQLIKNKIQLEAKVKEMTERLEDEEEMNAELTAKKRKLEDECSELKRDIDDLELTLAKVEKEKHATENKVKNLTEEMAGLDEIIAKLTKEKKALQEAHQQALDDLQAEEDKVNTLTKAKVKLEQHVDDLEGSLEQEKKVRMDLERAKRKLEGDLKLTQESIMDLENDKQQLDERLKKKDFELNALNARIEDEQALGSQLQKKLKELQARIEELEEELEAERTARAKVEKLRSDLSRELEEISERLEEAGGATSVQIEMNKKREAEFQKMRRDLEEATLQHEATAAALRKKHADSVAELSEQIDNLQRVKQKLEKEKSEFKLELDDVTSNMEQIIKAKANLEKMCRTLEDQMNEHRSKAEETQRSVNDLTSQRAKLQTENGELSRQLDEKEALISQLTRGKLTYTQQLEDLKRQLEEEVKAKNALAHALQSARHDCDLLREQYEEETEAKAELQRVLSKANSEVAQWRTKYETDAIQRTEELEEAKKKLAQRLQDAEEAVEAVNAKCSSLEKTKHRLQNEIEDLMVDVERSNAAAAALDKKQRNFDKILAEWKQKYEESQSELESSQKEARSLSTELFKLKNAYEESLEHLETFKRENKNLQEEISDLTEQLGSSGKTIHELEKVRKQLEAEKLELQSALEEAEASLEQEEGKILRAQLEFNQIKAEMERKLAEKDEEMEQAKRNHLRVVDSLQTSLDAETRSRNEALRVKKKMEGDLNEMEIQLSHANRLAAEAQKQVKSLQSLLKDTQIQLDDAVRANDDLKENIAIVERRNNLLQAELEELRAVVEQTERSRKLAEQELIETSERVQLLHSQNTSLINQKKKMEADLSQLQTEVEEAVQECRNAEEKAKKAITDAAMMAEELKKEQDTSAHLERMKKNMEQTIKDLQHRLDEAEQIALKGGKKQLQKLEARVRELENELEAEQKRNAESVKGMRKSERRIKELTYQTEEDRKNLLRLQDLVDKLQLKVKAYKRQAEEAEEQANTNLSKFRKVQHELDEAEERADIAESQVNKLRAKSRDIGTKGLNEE
Sequence (P85100 whole entry partner): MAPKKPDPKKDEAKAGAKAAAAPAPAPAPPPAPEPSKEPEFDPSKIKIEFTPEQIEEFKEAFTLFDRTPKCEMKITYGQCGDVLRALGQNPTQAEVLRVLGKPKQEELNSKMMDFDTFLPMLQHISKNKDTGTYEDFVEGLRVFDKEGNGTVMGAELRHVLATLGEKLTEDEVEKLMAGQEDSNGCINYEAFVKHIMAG
Sequence (Q3SZE5 whole entry partner): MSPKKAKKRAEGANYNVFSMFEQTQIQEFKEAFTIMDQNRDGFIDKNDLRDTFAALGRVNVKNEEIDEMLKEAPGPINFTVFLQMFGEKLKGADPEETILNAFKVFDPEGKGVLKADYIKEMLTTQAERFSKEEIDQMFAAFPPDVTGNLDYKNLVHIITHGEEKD
IC50 strictly less than 6 µM = label 1. Otherwise label 0.

Use the examples below as a reference point.
Cc1cc(C(=O)NC2CCc3cc(-c4nc(C)no4)ccc32)ccn1 (stereo not shown)    label 0
CCc1nc(-c2ccc3c(c2)CC[C@H]3NC(=O)c2cc(CO)ccc2F)no1    label 1

stdin: Dear reviewer, please state whether COCc1nc(-c2ccc3c(c2)CC[C@H]3NC(=O)c2nnc(C)o2)no1 [Compound 697] has IC50 strictly beneath 6 µM.
stdout: label 1

stdin: Dear reviewer, please state whether CC(CO)c1nc(-c2ccc3c(c2)CC[C@H]3NC(=O)c2ccnn2C)no1 (stereo partly shown) has IC50 strictly beneath 6 µM.
stdout: label 0

stdin: Dear reviewer, please state whether `C=Cn1cc(C(=O)N[C@@H]2CCc3cc(-c4noc(CC)n4)ccc32)cn1` has IC50 strictly beneath 6 µM.
stdout: label 1

stdin: Dear reviewer, please state whether `CCc1nc(-c2ccc3c(c2)CC[C@H]3NC(=O)c2cncc(C)c2)no1` has IC50 strictly beneath 6 µM.
stdout: label 1

stdin: Dear reviewer, please state whether `COCc1nc(-c2ccc3c(c2)OC[C@H]3NC(=O)c2cccc([C@@H](C)O)c2)no1` has IC50 strictly beneath 6 µM.
stdout: label 0

stdin: Dear reviewer, please state whether `Cc1c(C(=O)N[C@@H]2CCc3cc(-c4noc(C5CC5)n4)ccc32)cnn1C` has IC50 strictly beneath 6 µM.
stdout: label 1

stdin: Dear reviewer, please state whether Cn1nnc(C(=O)NC2COc3cc(-c4noc(C(F)F)n4)ccc32)n1 (stereo not shown) has IC50 strictly beneath 6 µM.
stdout: label 0

stdin: Dear reviewer, please state whether `Cc1ncc(C(=O)N[C@@H]2CCc3cc(-c4noc(C5CCC5)n4)ccc32)o1` has IC50 strictly beneath 6 µM.
stdout: label 1

stdin: Dear reviewer, please state whether `CCc1cc(-c2ccc3c(c2)OC[C@H]3NC(=O)c2cn[nH]c2C)no1` has IC50 strictly beneath 6 µM.
stdout: label 1

stdin: Dear reviewer, please state whether Cn1nccc1C(=O)NC1CCc2cc(-c3noc(C(F)F)n3)ccc21 (stereo not shown) has IC50 strictly beneath 6 µM.
stdout: label 1

stdin: Dear reviewer, please state whether CCc1nc(-c2ccc3c(c2)CC[C@H]3NC(=O)c2ccc(=O)[nH]c2)no1 [Compound 604] has IC50 strictly beneath 6 µM.
stdout: label 1

stdin: Dear reviewer, please state whether `CCc1nc(-c2ccc3c(c2)CC[C@H]3NC(=O)c2cccc(CCO)c2)no1` has IC50 strictly beneath 6 µM.
stdout: label 1

stdin: Dear reviewer, please state whether `Cc1cc(C(=O)N[C@@H]2CCc3cc(-c4noc(C(F)F)n4)ccc32)on1` has IC50 strictly beneath 6 µM.
stdout: label 1

stdin: Dear reviewer, please state whether `CCc1nc(-c2ccc3c(c2)CC[C@H]3NC(=O)c2cnc(O)o2)no1` has IC50 strictly beneath 6 µM.
stdout: label 1

stdin: Dear reviewer, please state whether `Cc1cc(C(=O)N[C@@H]2COc3cc(-c4noc(C)n4)cnc32)ccn1` has IC50 strictly beneath 6 µM.
stdout: label 0

stdin: Dear reviewer, please state whether `CC(C)COC(=O)N[C@@H]1CCc2cc(-c3noc(C(F)F)n3)ccc21` has IC50 strictly beneath 6 µM.
stdout: label 1

stdin: Dear reviewer, please state whether Cn1nnc(C(=O)NC2CCc3cc(-c4noc(C(F)F)n4)ccc32)n1 (stereo not shown) has IC50 strictly beneath 6 µM.
stdout: label 1

stdin: Dear reviewer, please state whether Cc1nc(-c2cnc3c(c2)CCC3NC(=O)c2ccccc2)no1 (stereo not shown) has IC50 strictly beneath 6 µM.
stdout: label 0

====

Target: bovine cardiac myofibrils (full-length cardiac myosin ATPase in the native sarcomere) (Bos taurus (Bovine))
Assay: Skinned bovine cardiac myofibril ATPase assay (PK/LDH-coupled)
Format: biochemical
Details: Ca2+ activating to 75% of maximal rate, concentration giving 15% inhibition
Procedure: To evaluate the effect of compounds on the ATPase activity of full-length cardiac myosin in the context of the native sarcomere, skinned myofibril assays were performed. […] Small molecule agents were assessed for their ability to inhibit the steady-state ATPase activity of bovine cardiac myofibrils using pyruvate kinase and lactate dehydrogenase (PK/LDH)-coupled enzyme system. This assay regenerates myosin-produced ADP into ATP by oxidizing NADH, producing an absorbance change at 340 nm. […]
Collected CDMF75 IC15 values appear next to each entry.
# number only, unit nM dropped from output

Cc1nc(-c2ccc3c(c2)CC[C@H]3NC(=O)c2ccnc(C(F)F)c2)no1    700
Cc1cc(-c2ccc3c(c2)OC[C@H]3NC(=O)c2ccnn2C)no1    500
CCc1cc(-c2ccc3c(c2)CC[C@H]3NC(=O)c2ocnc2C)no1    200
Cc1nc(-c2ccc3c(c2)CCC3NC(=O)c2ocnc2C2CC2)no1 (stereo not drawn)    1600
CCc1nc(-c2ccc3c(c2)CC[C@H]3NC(=O)c2cc(CO)ccc2F)no1    900

Value of measured CDMF75 IC15 for the entry Cc1nc(-c2ccc3c(c2)CCC3NC(=O)Nc2ccccn2)no1 (stereo not drawn) : 1900

Value of measured CDMF75 IC15 for the entry `COC(=O)N[C@@H]1CCc2cc(-c3noc(C(F)F)n3)ccc21` : 500

Value of measured CDMF75 IC15 for the entry Cc1nc(-c2ccc3c(c2)CCC3NC(=O)c2oncc2C)no1 (stereo not drawn) : 700

Value of measured CDMF75 IC15 for the entry `CCc1nc(-c2ccc3c(c2)CC[C@H]3NC(=O)c2cocn2)no1` : 2500

====

target: bovine cardiac myofibrils (full-length cardiac myosin ATPase in the native sarcomere) (Bos taurus (Bovine)); assay: Skinned bovine cardiac myofibril ATPase assay (PK/LDH-coupled); conditions: Ca2+ activating to 75% of maximal rate, read-out: CDMF75 IC50
Collected pIC50 values appear next to each entry.
In simple prose, pIC50 is minus the logarithm base ten of a concentration in moles per litre.

Take a look at these entries with their results.
COCc1nc(-c2ccc3c(c2)CC[C@H]3NC(=O)c2cccc([C@@H](C)O)c2)no1    4.88
COCCOC(=O)N[C@@H]1CCc2cc(-c3noc(C4CC4)n3)ccc21    5.09

// moving on: another record for pIC50
Value of measured pIC50 for the entry `CCc1nc(-c2ccc3c(c2)CC[C@H]3NC(=O)c2ccncc2C)no1` : 5.03

====

biological target: bovine cardiac myofibrils (full-length cardiac myosin ATPase in the native sarcomere) (Bos taurus (Bovine), UniProt Q9BE39); experiment: Skinned bovine cardiac myofibril ATPase assay (PK/LDH-coupled); type: biochemical; details: Ca2+ activating to 75% of maximal rate, concentration giving 15% inhibition
Is CDMF75 IC15 at least 800 nM? Then yes. If not, no.

Use the examples below as a reference point.
Cc1cnc(C(=O)NC2CCc3cc(-c4noc(C(F)F)n4)ccc32)c(C)n1 (stereo not shown) [Compound 41]    yes
CCc1nc(-c2ccc3c(c2)CC[C@H]3NC(=O)c2cnn(CCCOC)c2C)no1 [Compound 598]    yes
CCc1nc(-c2ccc3c(c2)CC[C@H]3NC(=O)c2ccnc(OC)c2)no1 [Compound 557]    no
Cc1nc(-c2ccc3c(c2)CCC3NC(=O)c2ncnn2C)no1 (stereo not shown) [Compound 120]    yes
O=C(NC1CCc2cc(-c3noc(C(F)F)n3)ccc21)c1ccn[nH]1 (stereo not shown) [Compound 49]    yes

stdin: Does the reported CDMF75 IC15 for [2H]C([2H])([2H])c1nc(-c2ccc3c(c2)OC[C@H]3NC(=O)c2nnn(C)n2)no1 [Compound 271] fall at or above the 800 nM mark?
stdout: yes

stdin: Does the reported CDMF75 IC15 for [2H]C([2H])([2H])c1nc(-c2ccc3c(c2)OC[C@H]3NC(=O)c2cnn(C)c2)no1 [Compound 265] fall at or above the 800 nM mark?
stdout: yes

stdin: Does the reported CDMF75 IC15 for [2H]C([2H])([2H])C(=O)N[C@@H]1CCc2cc(-c3noc(CC)n3)ccc21 [Compound 446] fall at or above the 800 nM mark?
stdout: no

====

molecular target: bovine cardiac myofibrils (full-length cardiac myosin ATPase in the native sarcomere) (Bos taurus (Bovine), UniProt Q9BE39); assay: Skinned bovine cardiac myofibril ATPase assay (PK/LDH-coupled); type: biochemical; details: Ca2+ activating to 75% of maximal rate, concentration giving 15% inhibition
Collected CDMF75 IC15 values appear next to each entry.
# number only, unit nM dropped from output

Take a look at these entries with their results.
Cc1nc(-c2ccc3c(c2)CCC3NC(=O)Nc2cncnc2)no1 (stereo not drawn)    3000
Cc1nc(-c2ccc3c(c2)CC[C@H]3NC(=O)c2cnn(C)c2)no1    1200

// moving on: another record for CDMF75 IC15
Value of measured CDMF75 IC15 for the entry `Cn1nccc1C(=O)N[C@@H]1CCc2cc(-c3noc(C4CC4)n3)ccc21` : 200
